- Tested on: MLK1;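 also: KINOMEscan kinase panel screen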
- Construct: gene MAP3K9
- study_conditions: concentration: 1 μM, replicates: in singlicate; n = 1
Measured %Inh by item
Numeric answer only, unit % assumed.

| molecule | %Inh / % |
| --- | --- |
| CCc1nc(-c2cccc(C)c2)c(-c2ccncc2)s1 | 0 |

Return reported %Inh; argument: Nc1n[nH]c2nnc(-c3ccccc3)c(-c3ccccc3)c12 [GW554060]
0

Return reported %Inh; argument: COc1ccc(-c2cc3c(C)nc(N)nc3n([C@H]3CC[C@H](OCCO)CC3)c2=O)cn1
0

Return reported %Inh; argument: COc1ccc(-c2cc3c(C)nc(N)nc3n([C@H]3CC[C@H](O)CC3)c2=O)cn1
0

Return reported %Inh; argument: CCC(=O)c1c(-c2ccccc2)c2cc(Cl)ccc2c(=O)n1Cc1cc(S(C)(=O)=O)n(CCC(C)(C)O)n1
3

Return reported %Inh; argument: Cc1cccc(-c2nc(Nc3ccc4c(cnn4C)c3)c3ccccc3n2)n1 [GW876731]
12

Return reported %Inh; argument: Nc1nccc2scc(-c3ccc4c(c3)CCN4C(=O)Cc3ccccc3)c12 [GSK2576924]
0

Return reported %Inh; argument: O=c1cc(N2CCOCC2)nc2n(Cc3ccc(F)c(Cl)c3)ccn12 [GSK2297099]
0

Return reported %Inh; argument: Cc1cccc(-c2cc(-c3c[nH]nc3-c3ccccn3)ccn2)c1 [GW679395]
0

Return reported %Inh; argument: O=C1NC(=O)C(c2ccccc2)=C1Nc1cccc(O)c1 [SB-390534]
0

Return reported %Inh; argument: COc1cc2nccc(Nc3cccc(Oc4ccccc4)c3)c2cc1OC.Cl [GW284543]
0

Return reported %Inh; argument: COC(=O)c1c(-c2ccccc2)c2cc(Br)ccc2c(=O)n1Cc1ccc(NC(=O)CCC(=O)O)cc1
0

Return reported %Inh; argument: CCCC(=O)Nc1n[nH]c2ncc(-c3cccc4ccccc34)cc12 [SB-642057]
0

Return reported %Inh; argument: COc1cc(Nc2nccc(N3CCC(NC(=O)C4COc5ccccc5O4)C3)n2)cc(OC)c1OC (stereo not shown) [GSK1379761]
63

Return reported %Inh; argument: Nc1ncnc2c1ncn2-c1ccc(Cl)cc1 [AH2635]
0

Return reported %Inh; argument: Nc1ncnc2c1ncn2-c1cccc(F)c1 [SKF-97560]
5

Return reported %Inh; argument: Nc1nc(-c2ccccc2F)c(-c2ccnc3ccccc23)s1 [GW560459]
0

Return reported %Inh; argument: COc1cc2ncn(-c3cc(OCc4ccncc4Br)c(C(N)=O)s3)c2cc1OC [GW854278]
2

Return reported %Inh; argument: O=C(Nc1ccc2c(c1)OCO2)NC1CCN(c2ccnc(NCc3ccc(F)cc3)n2)CC1 [GSK1379859]
0

Source of measurements: paper PMC5540273
